Target: T1, human mutCALR on BaF3 cells stably expressing human MPL and human mutCALR (MPL-mutCALR cells) (human)
T1 construct: also called mutant calreticulin
T1 chain: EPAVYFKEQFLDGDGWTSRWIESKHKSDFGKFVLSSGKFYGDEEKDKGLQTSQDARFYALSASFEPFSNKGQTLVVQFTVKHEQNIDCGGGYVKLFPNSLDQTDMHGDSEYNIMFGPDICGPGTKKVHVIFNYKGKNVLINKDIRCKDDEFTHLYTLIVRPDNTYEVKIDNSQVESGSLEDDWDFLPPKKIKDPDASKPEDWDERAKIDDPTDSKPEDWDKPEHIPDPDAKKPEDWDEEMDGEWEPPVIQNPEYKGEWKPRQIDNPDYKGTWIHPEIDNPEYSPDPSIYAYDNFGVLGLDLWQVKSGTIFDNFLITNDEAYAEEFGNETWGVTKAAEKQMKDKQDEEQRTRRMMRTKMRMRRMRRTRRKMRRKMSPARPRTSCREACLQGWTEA
Experiment: flow cytometry, BaF3 MPL-mutCALR cells
measured-quantity: MPL-mutCALR AUC

Q. Returns the measured MPL-mutCALR AUC for the input binder. Input: anti-mutCALR antibody clone 133 (antibody, human IgG1, lambda, N297A, V domains shown) VH: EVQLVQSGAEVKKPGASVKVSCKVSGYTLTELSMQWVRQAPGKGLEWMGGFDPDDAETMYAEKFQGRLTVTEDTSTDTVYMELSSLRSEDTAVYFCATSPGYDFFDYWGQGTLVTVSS VL: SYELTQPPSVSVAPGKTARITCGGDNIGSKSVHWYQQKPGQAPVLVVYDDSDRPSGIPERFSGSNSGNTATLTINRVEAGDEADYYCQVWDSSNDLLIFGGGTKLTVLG
A. 85200

Q. Returns the measured MPL-mutCALR AUC for the input binder. Input: anti-mutCALR antibody clone 127 (antibody, human IgG1, lambda, N297A, V domains shown) VH: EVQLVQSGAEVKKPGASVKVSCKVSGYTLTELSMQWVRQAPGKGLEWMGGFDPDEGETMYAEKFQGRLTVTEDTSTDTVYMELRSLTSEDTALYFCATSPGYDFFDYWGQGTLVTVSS VL: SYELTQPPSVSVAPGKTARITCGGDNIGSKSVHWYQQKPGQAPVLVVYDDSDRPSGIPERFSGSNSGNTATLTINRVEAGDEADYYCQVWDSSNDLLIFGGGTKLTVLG
A. 73500
